// reported IC50 for each item listed
tgt: TLR7/NFKb HEK cells (Homo sapiens)
Sequence (Q9NYK1 27-1049): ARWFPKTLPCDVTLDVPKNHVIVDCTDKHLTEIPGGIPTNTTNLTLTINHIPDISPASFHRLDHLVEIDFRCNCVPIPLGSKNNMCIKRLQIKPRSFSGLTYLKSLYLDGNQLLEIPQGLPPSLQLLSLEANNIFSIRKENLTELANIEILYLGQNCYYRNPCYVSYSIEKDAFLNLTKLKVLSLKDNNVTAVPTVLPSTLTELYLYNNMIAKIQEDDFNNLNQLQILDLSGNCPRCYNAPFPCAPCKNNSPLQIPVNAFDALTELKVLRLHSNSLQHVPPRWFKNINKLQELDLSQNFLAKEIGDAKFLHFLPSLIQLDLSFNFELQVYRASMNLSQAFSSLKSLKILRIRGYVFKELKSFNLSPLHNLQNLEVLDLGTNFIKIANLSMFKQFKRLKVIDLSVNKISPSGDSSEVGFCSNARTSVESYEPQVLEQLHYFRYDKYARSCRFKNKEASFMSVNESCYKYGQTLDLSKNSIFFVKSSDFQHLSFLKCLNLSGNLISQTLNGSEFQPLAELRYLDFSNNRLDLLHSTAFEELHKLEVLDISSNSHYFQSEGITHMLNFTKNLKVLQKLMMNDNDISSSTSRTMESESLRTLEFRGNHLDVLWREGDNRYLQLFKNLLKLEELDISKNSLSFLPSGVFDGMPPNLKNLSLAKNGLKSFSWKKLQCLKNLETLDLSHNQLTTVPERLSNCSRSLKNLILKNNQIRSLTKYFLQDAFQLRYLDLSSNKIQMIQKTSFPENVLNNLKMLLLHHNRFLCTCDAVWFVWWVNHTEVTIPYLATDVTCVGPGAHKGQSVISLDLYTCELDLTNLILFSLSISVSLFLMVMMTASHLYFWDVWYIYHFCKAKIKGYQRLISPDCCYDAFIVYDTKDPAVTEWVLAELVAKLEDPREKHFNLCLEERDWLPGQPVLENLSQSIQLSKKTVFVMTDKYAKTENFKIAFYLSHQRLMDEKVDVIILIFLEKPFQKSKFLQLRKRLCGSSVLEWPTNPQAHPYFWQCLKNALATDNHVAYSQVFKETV
assay_overview: HEK Cell Assay (TLR7/NFKb reporter, Steady-Glo luciferase readout)
experimental_setup: 30 min compound preincubation, then R*48 agonist for 5 hours, read-out: Potency

C[C@@H]1CN(c2ccc(C#N)c3ncncc23)C[C@H](C)O1; 1000 to 10000 nM
COc1ccc(N2C[C@@H](N)C[C@@H](C3CC3)C2)c2cccnc12 (relative stereo); < 1000 nM
C[C@H]1C[C@@H](N)CN(c2ccc(C(F)(F)F)c3ncccc23)C1; < 1000 nM

Suppose we examine the compound CN1CCCC1CNC(=O)C1CCN(c2ccc(C#N)c3ncccc23)CC1 (stereo not shown) ; what IC50 value has been reported?
< 1000 nM

Suppose we examine the compound `C[C@@H]1CN(c2ccc(C#N)c3nccnc23)C[C@H](CN2CCC(N3CCOCC3)CC2)O1` ; what IC50 value has been reported?
< 1000 nM

Suppose we examine the compound CCN1CCC[C@H]1C(=O)NC1CC(C(F)(F)F)CN(c2ccc(C#N)c3ncccc23)C1 (single isomer, unassigned) [Compound 437] ; what IC50 value has been reported?
1000 to 10000 nM

Suppose we examine the compound `C[C@H]1C[C@@H](NC(=O)Cc2cn(C)cn2)CN(c2ccnc3nccnc23)C1` ; what IC50 value has been reported?
> 10000 nM

Suppose we examine the compound `COCC(=O)N[C@@H]1C[C@H](C)CN(c2ccc(C#N)c3nccnc23)C1` ; what IC50 value has been reported?
1000 to 10000 nM

Suppose we examine the compound `C[C@H]1C[C@@H](NC(=O)[C@@H](C)N)CN(c2ccnc3nccnc23)C1` ; what IC50 value has been reported?
1000 to 10000 nM

Suppose we examine the compound `C[C@H]1C[C@@H](NC(=O)CNC(C)(C)C)CN(c2ccc(C#N)c3nccnc23)C1` ; what IC50 value has been reported?
< 1000 nM

Suppose we examine the compound CC(C(=O)N[C@@H]1C[C@H](C)CN(c2ccc(C(F)(F)F)c3ncccc23)C1)N1CC(O)C1 (stereo partly shown) ; what IC50 value has been reported?
< 1000 nM

Suppose we examine the compound CN1CCN(C(=O)CCC(=O)N[C@H]2C[C@@H](C(F)(F)F)CN(c3ccc(C#N)c4ncccc34)C2)CC1 (racemic) ; what IC50 value has been reported?
< 1000 nM

Suppose we examine the compound `C[C@H]1C[C@@H](NC(=O)CC(C)(C)N)CN(c2ccc(C(F)(F)F)c3ncccc23)C1` ; what IC50 value has been reported?
< 1000 nM
